# reported pIC50; entries follow
- System: uninfected cells
- testProtocol: Cytotoxicity on compound-exposed uninfected cells
- statedConditions: read-out: Cytotoxicity IC50; average of at least two experiments; uninfected cells
// pIC50: -log10(molar conc.)

• C=C(C)[C@@H]1CC[C@]2(CO)CC[C@]3(C)[C@H](CC[C@@H]4[C@@]5(C)CC[C@H](OC(=O)CCCC(=O)O)C(C)(C)[C@@H]5CC[C@]43C)[C@@H]12 [Compound 10, 3-O-glutaryl betulin] = 4.35

Recorded pIC50 (compound C=C(C)[C@@H]1CC[C@]2(CO)CC[C@]3(C)[C@H](CC[C@@H]4[C@@]5(C)CC[C@H](OC(=O)CCCC(=O)OCC)C(C)(C)[C@@H]5CC[C@]43C)[C@@H]12 [Compound 18, 3-O-glutaryl betulin ethyl ester] ): 4.44
